Readout type: flash point (°C)

[I] CC(C)OCC1CO1 (configuration not stated)
[II] CCOCOCC
Pick one: I or II . Which has the bigger flash point number? // respond with label for picked entry
I

[A] CC(C)CCSCCC(C)C [diisopentylsulfide]
[B] CC(C)(C)C1CCCCC1
Hi there! Just curious which has the higher flash point between A and B . Please indicate the selected item by its label.
A
(A: 77 °C, B: 40 °C)

* * *

Listed here are molecules together with their documented flash point.
A number alone suffices; assume °C.

Worked cases, flash point given:
# Molecule, flash point (°C)
data = [
    ("CCCC(C)=O", 7.00),
    ("CC(=O)CC(C)(C)O", 64.00),
    ("Cc1ccc(C)cc1", 27.00),
]

Recall and state the measured flash point for O=C(O)c1ccccc1O .
157.00

# return recorded flash point for entry CCC(Cl)[N+](=O)[O-] (stereo unspecified)
62.00

For the molecule c1ccc(-c2ccccc2-c2ccccc2)cc1 , give its reported flash point.
163.00

Tell me its flash point given C=C(C)C(=O)OC [Methyl methacrylate] as the entry.
10.00

Hello, please tell me recorded flash point for this one: c1ccc(-c2cccc(-c3ccccc3)c2)cc1
135.00

Provide only the value of recorded flash point for CC(C)(C)O
10.00

* * *

Readout type: flash point (°C)

# Molecule, flash point, °C
records = [
    ("CCCCC(Cl)(CC)CC", 60.0),
]

[a] CCC(C)CCCCCl (stereo not drawn)
[b] CC(C)C(C)(C)Cl
Could you point out whether the larger flash point belongs to a or to b ? // return label of chosen record
a

* * *

Readout type: flash point (°C)

# Smiles record, flash point, °C
rows = [
    ("CCCCCCCCCCCCC", 94),
    ("C=CCCCCCCCCCCC", 92),
    ("CCCCCCCBr", 61),
    ("Clc1ccccc1", 28),
]

* * *

Readout type: flash point (°C)

Please review the entries below; each comes with its answer.
# Molecule, flash point, °C
measured = [
    ("CCCCCOC(C)=O [n-pentyl acetate]", 25),
    ("OCCCCl", 73),
    ("CC1CCCC1", -29),
]

[a] CCCCCC(C)CCC (stereo unspecified)
[b] CCC(=O)OC [methyl propionate]
Task for the reader: decide whether a or b has the larger flash point. Respond with the label that goes with your answer.
a
(a: 38 °C, b: 6 °C)

[1] CCN(CC)CC
[2] CC(=O)C(C)=O
// compare measured flash point between 1 and 2 ; output the lower one Mark your selection by writing its label.
1
(1: -17 °C, 2: 6 °C)

[I] C1COCCN1
[II] Cc1cccc(I)c1
[III] c1ccc(CCc2ccccc2)cc1
[IV] C1CCOC1 [tetrahydrofuran]
Number of molecules to sort: 4. Sort criterion: flash point, ascending. The reply should contain the labels ordered as requested.
IV, I, II, III

[a] CC(C)CC(=O)O
[b] CSC(C)(C)C [t-butyl methyl sulfide]
[c] CCCCCCCS
[d] CCCC(C)S (stereo unspecified)
Would you mind ranking these molecules by ascending flash point? # respond with the labels, arranged in the requested order
b, d, c, a

[1] CC1CCC(O)CC1 (stereo unspecified)
[2] C=CC=C(C)C
Between 1 and 2 , which one shows the smaller flash point number? Please respond with the label that marks your chosen entry.
2

* * *

Readout type: flash point (°C)

# Compound, Output unit, flash point
measured = [
    ("CC(C)(C)CO [2,2-dimethylpropan-1-ol]", "°C", 37.00),
]

[P] CCO[Si](CCCN)(OCC)OCC [3-triethoxysilylpropan-1-amine]
[Q] CCCCCCCCCCCCCCCCCC(=O)[O-].CCCCCCCCCCCCCCCCCC(=O)[O-].[Zn+2] [zinc;octadecanoate]
# return whichever of P and Q has the smaller flash point Your answer should be the label attached to the chosen record.
P

* * *

Readout type: flash point (°C)

A selection of reference data follows.
# Compound, Output unit, flash point
records = [
    ("CC(=O)CCC=C(C)C", "°C", 57.00),
    ("CCSC(=O)N(CC)C1CCCCC1 [S-ethyl N-cyclohexyl-N-ethylcarbamothioate]", "°C", 139.00),
    ("OCCO", "°C", 111.00),
    ("C#C", "°C", -18.00),
    ("CC(C)=CCCC(C)=CC=O", "°C", 102.00),
]

[a] CC(C)N
[b] CCCCCCCCC1CO1 (stereo unspecified)
// select label with min value of measured flash point from [ a , b ] Lab note: record the label of whichever item you select.
a

* * *

Readout type: flash point (°C)

# Compound, Output unit, flash point
rows = [
    ("CCCCCCCS", "°C", 50.5),
]

[I] C=CCCC
[II] C=CCCCCCCCC
I'd appreciate it if you could identify which of I and II has the greater flash point. Use the label to indicate which entry you chose.
II
(II: 47.0 °C, I: -54 °C)

* * *

Readout type: flash point (°C)

# Compound, flash point [°C]
data = [
    ("CCCCCC[Si](Cl)(Cl)Cl [n-Hexyltrichlorosilane]", 85.00),
]

[A] CO[Si](CCC1CCC2OC2C1)(OC)OC (stereo not drawn) [2-(3,4-epoxycyclohexyl)ethyltrimethoxysilane]
[B] N#CCCC[Si](Cl)(Cl)Cl [Trichloro(3-cyanopropyl) Silane]
Which of the two gives a bigger number for flash point: A or B ? API: response body contains the label of the selected item.
A
(A: 146.00 °C, B: 92.00 °C)

* * *

Readout type: flash point (°C)

Example results:
# Compound, flash point / °C
records = [
    ("Cc1ccc(OP(=O)(Oc2ccc(C)cc2C)Oc2ccc(C)cc2C)c(C)c1 [tris(2,4-dimethylphenyl) phosphate]", 232.00),
    ("CCCCOCCOCC(C)O (centres undefined)", 121.00),
    ("CCC[N+](=O)[O-]", 34.00),
    ("CNC", -7.00),
    ("CCOP(=S)(OCC)Oc1cc(C)nc(N(CC)CC)n1", 113.00),
]

[P] CC(C)(C)C(=O)O
[Q] CCCC(O)C(CC)CO (centres undefined)
Exercise: compare P and Q ; which one has the greater flash point? Reply briefly: the label of your chosen item.
Q
(Q: 127.00 °C, P: 64.00 °C)

* * *

Readout type: flash point (°C)

[A] OCCS
[B] CC1(C)CCCC1=O
Returns: the label, A or B , whose recorded flash point is the lower number. Output the label that corresponds to your choice.
B
(B: 33 °C, A: 68 °C)

* * *

Listing of entries alongside the reported flash point.
Kindly answer with a numeric value in °C, unit omitted.

# Compound, Readout type, Output unit, Recorded result
rows = [
    ("CCC[CH2][Sn]([C]#Cc1ccccc1)([CH2]CCC)[CH2]CCC [PHENYLETHYNYLTRI-n-BUTYLTIN]", "flash point", "°C", 113.00),
    ("C[Si](C)(C)[N]([Sn][N]([Si](C)(C)C)[Si](C)(C)C)[Si](C)(C)C [BIS[BIS(TRIMETHYLSILYL)AMINO]TIN(II)]", "flash point", "°C", 56.00),
    ("[Cl][Sn]([c]1ccccc1)([c]1ccccc1)[c]1ccccc1 [TRIPHENYLCHLOROTIN]", "flash point", "°C", 70.00),
]

Give the reported flash point for this compound. CCC[CH2][Sn]([CH2]CCC)([CH2]CCC)[N](C)C [DIMETHYLAMINOTRI-n-BUTYLTIN]
115.00

* * *

Readout type: flash point (°C)

# Compound, Output unit, flash point
records = [
    ("C=C(C)C(C)(C)C", "°C", -17),
]

[a] C1=CCCCCCC1
[b] CC1(C)CCCC1
Pick one: a or b . Which has the bigger flash point number? Reply briefly: the label of your chosen item.
a
(a: 25 °C, b: -16 °C)

* * *

Readout type: flash point (°C)

Example compounds with recorded flash point:
# Compound, flash point / °C
records = [
    ("C=C(C)C(C)C", -18),
    ("CCCCCCCCCCN", 86),
]

[P] C=C1CCCC1
[Q] CCCCNC(C)=O [N-butylacetamide]
Problem: Given the entries P and Q , determine which has the lower reported flash point. Could you answer with the label of the item you picked?
P

* * *

Readout type: flash point (°C)

# Compound, Output unit, flash point
measured = [
    ("CCCCCCCCCCCCCl", "°C", 104.6),
    ("CCC(Cl)C(C)C (stereo not drawn)", "°C", 21),
    ("CC(C)(C)CCCl", "°C", 19.1),
]

* * *

Readout type: flash point (°C)

# Smiles record, Readout type, Recorded result
measured = [
    ("CCCCC1CCCCC1", "flash point", 52.5),
    ("Cc1ccc(C)c(C)c1", "flash point", 45.5),
    ("NCCN", "flash point", 38),
    ("CCCCS", "flash point", 1.0),
]
